Reported values of pEC50 for individual entries
Molecular target: human GcgR (Homo sapiens, UniProt P47871)
Sequence (P47871 26-477): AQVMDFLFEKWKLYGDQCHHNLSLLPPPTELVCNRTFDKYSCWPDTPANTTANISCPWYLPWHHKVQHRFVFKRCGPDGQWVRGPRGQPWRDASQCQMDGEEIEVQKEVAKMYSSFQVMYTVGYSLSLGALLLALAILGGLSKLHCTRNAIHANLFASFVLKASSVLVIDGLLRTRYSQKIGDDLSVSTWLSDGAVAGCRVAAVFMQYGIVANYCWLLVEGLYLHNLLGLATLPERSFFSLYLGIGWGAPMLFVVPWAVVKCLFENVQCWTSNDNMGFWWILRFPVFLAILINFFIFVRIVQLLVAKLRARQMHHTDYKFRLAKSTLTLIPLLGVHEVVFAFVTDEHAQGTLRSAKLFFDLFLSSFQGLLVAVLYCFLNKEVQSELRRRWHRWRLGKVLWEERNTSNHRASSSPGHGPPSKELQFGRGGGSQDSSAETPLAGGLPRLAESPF
Assay: Functional cAMP activity in the presence of 1% HSA
Format: cell-based
Conditions: read-out: cAMP Rel EC50, hGcgR
pEC50: −log10 of the molar value. Starred links: 1 amine or outer side, 2 acyl side, 3 side chain; linkers in the order of their positions; H or OH if unused. Non-standard residues stand in square brackets, D forms with d. Groups on a side chain read outwards from the residue. No end group written: not given here. *: point of attachment. C20 diacid = O=C(O)CCCCCCCCCCCCCCCCCCC(=O)*; C18 diacid = O=C(O)CCCCCCCCCCCCCCCCC(=O)*; αMePhe(2-F) = C[C@](N)(Cc1ccccc1F)C(=O)O; γGlu = O=C(O)[C@H](CCC(=O)[*:2])N[*:1]; αMe4Pal = C[C@](N)(Cc1ccncc1)C(=O)O; αMeY = C[C@](N)(Cc1ccc(O)cc1)C(=O)O; 4Pal = N[C@@H](Cc1ccncc1)C(=O)O; αMeL = CC(C)C[C@](C)(N)C(=O)O; Orn = NCCC[C@H](N)C(=O)O; AEEA = NCCOCCOCC(=O)O; Aib = CC(C)(N)C(=O)O
Outcome measure: pEC50

- Substance: "Y[Aib]QGTFTSDFS[Orn][αMeL]LDKK([AEEA-γGlu-C18 diacid])AQ[Aib]AFIEYLIE[Aib]GPSSGAPPPSGS-NH2 [Example 796]"
  Target system: "human GcgR (Homo sapiens, UniProt P47871)"
  Outcome measure: "pEC50"
  Measured: 6.00
- Substance: "H-Y[Aib]QGTFTSDYSI[αMeL]LDKQAAK([AEEA-AEEA-γGlu-C20 diacid])QFVEWLIA[Aib]GPSSGEPPPGTG-NH2 [Example 336]"
  Target system: "human GcgR (Homo sapiens, UniProt P47871)"
  Outcome measure: "pEC50"
  Measured: 5.76
- Substance: "Y[Aib]QGT[αMePhe(2-F)]TSD[4Pal]SI[αMeL]LD[Orn]K([AEEA-γGlu-C18 diacid])AQ[αMe4Pal][Orn]FI[dE][αMeY]LIEGGPSSGAPPPEGGGE-NH2 [Example 758]"
  Target system: "human GcgR (Homo sapiens, UniProt P47871)"
  Outcome measure: "pEC50"
  Measured: 6.41
